Test: PhoP regulon inhibitors, Salmonella typhi PhoP promoter GFP reporter, confirmatory (AID 1850);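 further: 0% = induced wells with vehicle and 100% = uninduced wells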
Conditions: fluorescence, 4 h, at 50 µM, active compounds read high
Among all 310,000 compounds or so, about 1,000 (0.32%) were called active. The list is a sample of the results. Measured potencies and affinities stand elsewhere.
READOUT_LABEL: inhibition (%)
State the answer as a number, implicitly in %.

>>> result("O=C(CCC(=O)N1CCCCC1)Nc1nnc(C2CCCCC2)s1")
8.14
>>> result("O=C(O)c1cccc([N+](=O)[O-])c1C(=O)Nc1nc2ccccc2s1")
4.78
>>> result("Cc1ccc(/C=N/NC(=O)c2ccoc2C)s1")
0.98
>>> result("C=C(C)c1cccc(C(C)(C)NC(=O)NCCCN2CCCC2=O)c1")
-0.97

**Q:** Can you look up the measured inhibition of COCCNC(=O)c1ccc(CN2CCC(Cc3ccccc3)CC2)cc1 for me?
**A:** -1.7

**Q:** Can you look up the measured inhibition of CCc1nnc(NC(=O)c2cccc(S(=O)(=O)N3CCc4ccccc43)c2)s1 for me?
**A:** -12.3

**Q:** Can you look up the measured inhibition of CCCCOC(=O)c1ccc(-c2ccc(/C=N/NC(=S)NCC)o2)cc1 for me?
**A:** -7.32

**Q:** Can you look up the measured inhibition of COc1ccc2cc(CN(Cc3cccnc3)Cc3nnnn3Cc3ccccc3)c(=O)[nH]c2c1 for me?
**A:** -1.66

**Q:** Can you look up the measured inhibition of O=C(O)c1oc2ccccc2c1CN1CCN(c2ccccc2)CC1 for me?
**A:** -0.62

**Q:** Can you look up the measured inhibition of O=C(OCCN=C1NS(=O)(=O)c2ccccc21)c1ccco1 for me?
**A:** 5.3

**Q:** Can you look up the measured inhibition of O=C(NCCN1CCOCC1)/C(=C/c1ccc(Cl)cc1)NC(=O)c1ccccc1 for me?
**A:** 0.05
